Where these numbers come from: the supplement of paper PMC11061612

tested on: SNG-M (Endometrial Carcinoma); assay: Bliss excess, mean over the matrix (fraction); higher = more synergy
Would you kindly list Bliss excess for each of these molecules?
No unit in the answer, please; the number alone is enough.

Challenge: Read the entry O=C(c1cc(Cc2n[nH]c(=O)c3ccccc23)ccc1F)N1CCN(C(=O)C2CC2)CC1 [Olaparib] + Cc1c2c(nn1C)CSCc1cc(n(C)n1)CSc1cc(c3ccccc3c1)OCCCc1c(C(=O)O)n(C)c3c-2c(Cl)ccc13 [AZD5991] (first compound max 10 µM, 7x7, partner max 1 µM) and write its reported Bliss excess.
Response given: 0.002

Challenge: Read the entry COc1nnc2ccc(N3CCC(c4ccc(OCCN5CCN(C)C(=O)[C@H]5C)cc4)CC3)nn12 [AZD5153] + CCN(CCO)CCCOc1ccc2c(Nc3cc(CC(=O)Nc4cccc(F)c4)[nH]n3)ncnc2c1 [AZD2811] (first compound max 1 µM, 7x7, partner max 1 µM) and write its reported Bliss excess.
Response given: -0.0158

----------
Would you kindly list combination Emax for each of these compounds?
test system: U-118-MG (Low Grade Glioma); assay: combination Emax (second highest fraction inhibited in the dose matrix, 72 h); higher = more inhibition; extreme values may be limits of the assay
No unit in the answer, please; the number alone is enough.

Challenge: Fetch value of combination Emax on U-118-MG (Low Grade Glioma) for Cc1cc2ncnn2cc1Nc1ncc2c(n1)n(C1CCOCC1)c(=O)n2C [AZD7648] + CN(C)CCCOc1ccc(-c2ccc3ncc4c(c3c2)n(C2CCOCC2)c(=O)n4C)cn1 [AZD0156] (first compound max 10 µM, 7x7, partner max 1 µM) .
Response given: 0.277

Challenge: Fetch value of combination Emax on U-118-MG (Low Grade Glioma) for Cc1c2c(nn1C)CSCc1cc(n(C)n1)CSc1cc(c3ccccc3c1)OCCCc1c(C(=O)O)n(C)c3c-2c(Cl)ccc13 [AZD5991] + Cn1cnc2c(F)c(Nc3ccc(Br)cc3Cl)c(C(=O)NOCCO)cc21 [Selumetinib] (first compound max 1 µM, 7x7, partner max 3 µM) .
Response given: 0.326

Challenge: Fetch value of combination Emax on U-118-MG (Low Grade Glioma) for CN(CCO)CC[C@H](CSc1ccccc1)Nc1ccc(S(=O)(=O)NC(=O)c2ccc(N3CCC([C@@H](O)c4ccccc4-c4ccc(Cl)cc4)CC3)cc2)cc1S(=O)(=O)C(F)(F)F [AZD4320] + CN(C)CCCOc1ccc(-c2ccc3ncc4c(c3c2)n(C2CCOCC2)c(=O)n4C)cn1 [AZD0156] (first compound max 1 µM, 7x7, partner max 1 µM) .
Response given: 0.388

----------
test system: HCC38 (Breast Carcinoma); experiment: Bliss excess, mean over the matrix (fraction); higher = more synergy
test.readout: Bliss excess
No unit in the answer, please; the number alone is enough.

Challenge: Read the entry CC1(C)CCC(CN2CCN(c3ccc(C(=O)NS(=O)(=O)c4ccc(NCC5CCOCC5)c([N+](=O)[O-])c4)c(Oc4cnc5[nH]ccc5c4)c3)CC2)=C(c2ccc(Cl)cc2)C1 [Venetoclax] + CS(=O)(=O)CCNCc1ccc(-c2ccc3ncnc(Nc4ccc(OCc5cccc(F)c5)c(Cl)c4)c3c2)o1 [Lapatinib] (first compound max 1 µM, 7x7, partner max 10 µM) and write its reported Bliss excess.
Response given: -0.0355

Challenge: Read the entry COc1cc2c(cc1OCCCCCOc1cc3c(cc1OC)C(=O)N1C=C(C)C[C@H]1C=N3)N=C[C@@H]1CC(C)=CN1C2=O [SG3199] + O=C(c1cc(Cc2n[nH]c(=O)c3ccccc23)ccc1F)N1CCN(C(=O)C2CC2)CC1 [Olaparib] (first compound max 0.001 µM, 7x7, partner max 10 µM) and write its reported Bliss excess.
Response given: -0.0356
